Test system: Staphylococcus aureus X400
Test: MIC, standard agar-dilution assay
Format: cell-based
Settings: Staphylococcus aureus, X400; Table IV; methicillin-resistant strain; inducibly erythromycin-resistant; read-out: minimal inhibitory concentration (MIC)
PARAMETER: MIC

What does the data say about its MIC? Entry: CCCN[C@@H]1[C@H](C)[C@@H](O)[C@@H](C)[C@@H](CC)OC(=O)[C@H](C)[C@@H](O[C@H]2C[C@@](C)(OC)[C@@H](O)[C@H](C)O2)[C@H](C)[C@@H](O[C@@H]2O[C@H](C)C[C@H](N(C)C)[C@H]2O)[C@](C)(O)C[C@H]1C [Compound 38]
64 µg/mL

What does the data say about its MIC? Entry: CC[C@H]1OC(=O)[C@H](C)[C@@H](O[C@H]2C[C@@](C)(OC)[C@@H](O)[C@H](C)O2)[C@H](C)[C@@H](O[C@@H]2O[C@H](C)C[C@H](N(C)C)[C@H]2O)[C@](C)(O)C[C@@H](C)[C@H](NCCCCCO)[C@H](C)[C@@H](O)[C@]1(C)O [Compound 21]
> 128 µg/mL

What does the data say about its MIC? Entry: CCN[C@@H]1[C@H](C)[C@@H](O)[C@](C)(O)[C@@H](CC)OC(=O)[C@H](C)[C@@H](O[C@H]2C[C@@](C)(OC)[C@@H](O)[C@H](C)O2)[C@H](C)[C@@H](O[C@@H]2O[C@H](C)C[C@H](N(C)C)[C@H]2O)[C@](C)(O)C[C@H]1C [Compound 2, (9S)-9-Deoxo-9-(ethylamino)erythromycin]
> 128 µg/mL

What does the data say about its MIC? Entry: CCCCCCN[C@@H]1[C@H](C)[C@@H](O)[C@](C)(O)[C@@H](CC)OC(=O)[C@H](C)[C@@H](O[C@H]2C[C@@](C)(OC)[C@@H](O)[C@H](C)O2)[C@H](C)[C@@H](O[C@@H]2O[C@H](C)C[C@H](N(C)C)[C@H]2O)[C@](C)(O)C[C@H]1C [Compound 6, 9-Deoxo-9-(n-hexylamino)erythromycin]
> 128 µg/mL

What does the data say about its MIC? Entry: CC[C@H]1OC(=O)[C@H](C)[C@@H](O[C@H]2C[C@@](C)(OC)[C@@H](O)[C@H](C)O2)[C@H](C)[C@@H](O[C@@H]2O[C@H](C)C[C@H](N(C)C)[C@H]2O)[C@](C)(O)C[C@@H](C)[C@H](NCCC(C)C)[C@H](C)[C@@H](O)[C@]1(C)O [Compound 11]
> 128 µg/mL

What does the data say about its MIC? Entry: CC[C@H]1OC(=O)[C@H](C)[C@@H](O[C@H]2C[C@@](C)(OC)[C@@H](O)[C@H](C)O2)[C@H](C)[C@@H](O[C@@H]2O[C@H](C)C[C@H](N(C)C)[C@H]2O)[C@](C)(O)C[C@@H](C)[C@H](NCCCc2ccccc2)[C@H](C)[C@@H](O)[C@]1(C)O [Compound 17]
> 128 µg/mL

What does the data say about its MIC? Entry: CCCCCCCCCCN[C@@H]1[C@H](C)[C@@H](O)[C@@H](C)[C@@H](CC)OC(=O)[C@H](C)[C@@H](O[C@H]2C[C@@](C)(OC)[C@@H](O)[C@H](C)O2)[C@H](C)[C@@H](O[C@@H]2O[C@H](C)C[C@H](N(C)C)[C@H]2O)[C@](C)(O)C[C@H]1C [Compound 41]
4 µg/mL

What does the data say about its MIC? Entry: CC[C@H]1OC(=O)[C@H](C)[C@@H](O[C@H]2C[C@@](C)(OC)[C@@H](O)[C@H](C)O2)[C@H](C)[C@@H](O[C@@H]2O[C@H](C)C[C@H](N(C)C)[C@H]2O)[C@](C)(O)C[C@@H](C)[C@H](NCCOC)[C@H](C)[C@@H](O)[C@]1(C)O [Compound 31]
> 128 µg/mL

What does the data say about its MIC? Entry: CC[C@H]1OC(=O)[C@H](C)[C@@H](O[C@H]2C[C@@](C)(OC)[C@@H](O)[C@H](C)O2)[C@H](C)[C@@H](O[C@@H]2O[C@H](C)C[C@H](N(C)C)[C@H]2O)[C@](C)(O)C[C@@H](C)[C@H](NCCCSC)[C@H](C)[C@@H](O)[C@]1(C)O [Compound 26]
> 128 µg/mL

What does the data say about its MIC? Entry: CC[C@H]1OC(=O)[C@H](C)[C@@H](O[C@H]2C[C@@](C)(OC)[C@@H](O)[C@H](C)O2)[C@H](C)[C@@H](O[C@@H]2O[C@H](C)C[C@H](N(C)C)[C@H]2O)[C@](C)(O)C[C@@H](C)[C@H](NCC(C)(C)CO)[C@H](C)[C@@H](O)[C@]1(C)O [Compound 22]
> 128 µg/mL

What does the data say about its MIC? Entry: CCCN[C@@H]1[C@H](C)[C@@H](O)[C@](C)(O)[C@@H](CC)OC(=O)[C@H](C)[C@@H](O[C@H]2C[C@@](C)(OC)[C@@H](O)[C@H](C)O2)[C@H](C)[C@@H](O[C@@H]2O[C@H](C)C[C@H](N(C)C)[C@H]2O)[C@](C)(O)C[C@H]1C [Compound 3, 9-Deoxo-9-(n-propylamino)erythromycin]
> 128 µg/mL

What does the data say about its MIC? Entry: CCCCCN[C@@H]1[C@H](C)[C@@H](O)[C@](C)(O)[C@@H](CC)OC(=O)[C@H](C)[C@@H](O[C@H]2C[C@@](C)(OC)[C@@H](O)[C@H](C)O2)[C@H](C)[C@@H](O[C@@H]2O[C@H](C)C[C@H](N(C)C)[C@H]2O)[C@](C)(O)C[C@H]1C [Compound 5, 9-Deoxo-9-(n-pentylamino)erythromycin]
> 128 µg/mL

What does the data say about its MIC? Entry: CCCCCCCN[C@@H]1[C@H](C)[C@@H](O)[C@](C)(O)[C@@H](CC)OC(=O)[C@H](C)[C@@H](O[C@H]2C[C@@](C)(OC)[C@@H](O)[C@H](C)O2)[C@H](C)[C@@H](O[C@@H]2O[C@H](C)C[C@H](N(C)C)[C@H]2O)[C@](C)(O)C[C@H]1C [Compound 7, 9-Deoxo-9-(n-heptylamino)erythromycin]
> 128 µg/mL

* * *

Tested on: Streptococcus sp. group D 2041
Assay: MIC, standard agar-dilution assay
Type: cell-based
Conditions: Streptococcus, read-out: minimal inhibitory concentration (MIC)
PARAMETER: MIC (µg/mL)
Response body: numeric value in µg/mL, unit text excluded.

What does the data say about its MIC? Entry: C=CCCCCCCCCCN[C@@H]1[C@H](C)[C@@H](O)[C@](C)(O)[C@@H](CC)OC(=O)[C@H](C)[C@@H](O[C@H]2C[C@@](C)(OC)[C@@H](O)[C@H](C)O2)[C@H](C)[C@@H](O[C@@H]2O[C@H](C)C[C@H](N(C)C)[C@H]2O)[C@](C)(O)C[C@H]1C [Compound 28]
2

What does the data say about its MIC? Entry: CCCN[C@@H]1[C@H](C)[C@@H](O)[C@@H](C)[C@@H](CC)OC(=O)[C@H](C)[C@@H](O[C@H]2C[C@@](C)(OC)[C@@H](O)[C@H](C)O2)[C@H](C)[C@@H](O[C@@H]2O[C@H](C)C[C@H](N(C)C)[C@H]2O)[C@](C)(O)C[C@H]1C [Compound 38]
2

What does the data say about its MIC? Entry: CCCCN[C@@H]1[C@H](C)[C@@H](O)[C@](C)(O)[C@@H](CC)OC(=O)[C@H](C)[C@@H](O[C@H]2C[C@@](C)(OC)[C@@H](O)[C@H](C)O2)[C@H](C)[C@@H](O[C@@H]2O[C@H](C)C[C@H](N(C)C)[C@H]2O)[C@](C)(O)C[C@H]1C [Compound 4, 9-Deoxo-9-(n-butylamino)erythromycin]
1

What does the data say about its MIC? Entry: CC[C@H]1OC(=O)[C@H](C)[C@@H](O[C@H]2C[C@@](C)(OC)[C@@H](O)[C@H](C)O2)[C@H](C)[C@@H](O[C@@H]2O[C@H](C)C[C@H](N(C)C)[C@H]2O)[C@](C)(O)C[C@@H](C)[C@H](NC)[C@H](C)[C@@H](O)[C@]1(C)O [Compound 1, 9-Deoxo-9-(methylamino)erythromycin]
1
